Ref: patent US20250136694A1

- TARGET_SYSTEM: T1, human B7-H4 on the cell surface (human, UniProt Q7Z7D3 25-282)
- T1 construct: whole, on cells; also called hu B7-H4; CHO-K1/huB7-H4
- T1 sequence (looked up): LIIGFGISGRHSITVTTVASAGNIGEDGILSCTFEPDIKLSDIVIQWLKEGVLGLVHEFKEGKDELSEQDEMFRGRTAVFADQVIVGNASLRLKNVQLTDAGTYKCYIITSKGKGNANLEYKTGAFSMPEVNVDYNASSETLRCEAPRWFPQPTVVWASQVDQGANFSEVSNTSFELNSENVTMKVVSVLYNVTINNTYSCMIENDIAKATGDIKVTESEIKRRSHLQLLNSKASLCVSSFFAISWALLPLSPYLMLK
- ASSAY_PROCEDURE: FACS, MDA-MB-468 cells
PROPERTY_MEASURED: EC50 (nM)

binder="PR006008 (antibody, IgG1, V domains shown, also called R7004M6D4; anti-human B7-H4 HCAb monoclonal antibody) VH: EVQLVESGGGLVQPGGSLRLSCAASGFTFTDFWMHWVRQVPGKGREWVSRISPDGSSTSYEDSVKGRFTISRDNAKNTVYLQMHGLRAEDTAVYYCTRFSTGWHRIEYFQHWGQGTLVTVSS" readout_number=0.162
binder="PR007440 (antibody, IgG1, V domains shown, also called PTM variant (G55S) of PR006004) VH: EVQLVESGGGLVQPGGSLRLSCAASGFAFSNYWMHWARQVPGKGRVWISRISGDSRSTSYADSVKGRFTISRDNAKNMVYLQMNNLRAEDTAVYYCARDRFGDDYYYGMNVWGQGTTVTVSS" readout_number=9.18
binder="PR006004 (antibody, V domains shown, also called R7004M1A2; anti-human B7-H4 HCAb monoclonal antibody) VH: EVQLVESGGGLVQPGGSLRLSCAASGFAFSNYWMHWARQVPGKGRVWISRISGDGRSTSYADSVKGRFTISRDNAKNMVYLQMNNLRAEDTAVYYCARDRFGDDYYYGMNVWGQGTTVTVSS" readout_number=5.19
binder="PR007441 (antibody, IgG1, V domains shown, also called PTM variant (G55S) of PR006008) VH: EVQLVESGGGLVQPGGSLRLSCAASGFTFTDFWMHWVRQVPGKGREWVSRISPDSSSTSYEDSVKGRFTISRDNAKNTVYLQMHGLRAEDTAVYYCTRFSTGWHRIEYFQHWGQGTLVTVSS" readout_number=0.244
